Method summary: Pharmacokinetics in female BALB/c nude mice bearing A375 xenografts, 1 day dosing (PK and PD study): plasma, tumor and brain concentrations, AUC
Type: in vivo
Assay setup: mouse, plasma, po, 6 mg/kg, 6 mg/kg p.o. QD × 1 day; 1 h; read-out: Mean Concentration in Plasma ± SEM
Endpoint: concentration at 1 h (ng/mL)
Give bare numbers, in ng/mL.

Please indicate concentration at 1 h recorded for `CCN(C)S(=O)(=O)Nc1ccc(F)c(Oc2ccc3ncn([C@H]4COC5(CCN(C6CC7(C6)CN(c6cc8c(cc6F)c(N6CCC(=O)NC6=O)nn8C)C7)CC5)C4)c(=O)c3c2)c1C#N`
15200
